Measured CGC of individual entries
Test: Hydrogel formation, vial inversion test (critical gel concentration)
Type: physicochemical
Settings: cationic peptides 15-19; triggers GdL, heat and NaCl (18, 19: heat and NaCl)
Excerpt: The simplest method to determine whether a suitable hydrogel has formed is to use the vial inversion test. Through visual inspection, a material can be categorised as a solution, viscous solution, partial gel, or solid-like gel. […] The critical gel concentration (CGC) is defined as the minimum mass of a short peptide required to provide a self-supporting hydrogel per unit volume in the vial inversion test (measured as % w/v). […]
Result Type: CGC (% W/V)

Molecule: CN(C)CCCNC(=O)[C@H](Cc1ccccc1)NC(=O)c1ccc(F)cc1NC(=O)c1ccc2ccccc2c1 [Compound 15]
Result Type: CGC
Unit Annotation: % W/V
Endpoint Value: 0.
--
Molecule: CN(C)CCCNC(=O)[C@H](Cc1ccccc1)NC(=O)c1ccccc1NC(=O)c1ccc2ccccc2c1.Cl [Compound 19]
Result Type: CGC
Unit Annotation: % W/V
Endpoint Value: 0.3
--
Molecule: CN(C)CCCNC(=O)[C@H](Cc1ccccc1)NC(=O)c1ccccc1NC(=O)c1ccc2ccccc2c1 [Compound 18]
Result Type: CGC
Unit Annotation: % W/V
Endpoint Value: 0.3
--
Molecule: CN(C)CCCNC(=O)[C@H](Cc1ccccc1)NC(=O)c1ccc(Cl)cc1NC(=O)c1ccc2ccccc2c1 [Compound 16]
Result Type: CGC
Unit Annotation: % W/V
Endpoint Value: 0.2

====

Measured fiber bundle diameter of individual entries
Test: Atomic force microscopy (AFM) of fibers
Type: physicochemical
Details: hydrogel after addition of salt, 4× below CGC
Result Type: fiber bundle diameter (nm)

Structure: NCCCNC(=O)[C@H](Cc1ccccc1)NC(=O)c1ccccc1NC(=O)c1ccc2ccccc2c1
Result Type: fiber bundle diameter
Endpoint Value: 115

Structure: CN(C)CCCNC(=O)[C@H](Cc1ccccc1)NC(=O)c1ccccc1NC(=O)c1ccc2ccccc2c1
Result Type: fiber bundle diameter
Endpoint Value: 139

Structure: CN(C)CCCNC(=O)[C@H](Cc1ccccc1)NC(=O)c1ccc(F)cc1NC(=O)c1ccc2ccccc2c1
Result Type: fiber bundle diameter
Endpoint Value: 115

Structure: CN(C)CCCNC(=O)[C@H](Cc1ccccc1)NC(=O)c1ccc(Cl)cc1NC(=O)c1ccc2ccccc2c1
Result Type: fiber bundle diameter
Endpoint Value: 99

Structure: C[N+](C)(C)CCCNC(=O)[C@H](Cc1ccccc1)NC(=O)c1ccccc1NC(=O)c1ccc2ccccc2c1.[I-]
Result Type: fiber bundle diameter
Endpoint Value: 148

====

Tested on: S. aureus 38
Test: Antibacterial activity of cationic hydrogels, viable count method
Type: cell-based, Staphylococcus aureus
Conditions: hydrogel at 1% w/v in contact with S. aureus, compared to control

Compound: CN(C)CCCNC(=O)[C@H](Cc1ccccc1)NC(=O)c1ccccc1NC(=O)c1ccc2ccccc2c1 [Compound 12]
Target Entity: S. aureus 38
Unit Annotation: Log10
bacterial reduction: 5.1
//
Compound: CN(C)CCCNC(=O)[C@H](Cc1ccccc1)NC(=O)c1ccccc1NC(=O)c1ccc2ccccc2c1 [Compound 18]
Target Entity: S. aureus 38
Unit Annotation: Log10
bacterial reduction: 4.9
//
Compound: C[N+](C)(C)CCCNC(=O)[C@H](Cc1ccccc1)NC(=O)c1ccccc1NC(=O)c1ccc2ccccc2c1.[I-]
Target Entity: S. aureus 38
Unit Annotation: Log10
bacterial reduction: 4.1
//
Compound: CN(C)CCCNC(=O)[C@H](Cc1ccccc1)NC(=O)c1ccccc1NC(=O)c1ccc2ccccc2c1.Cl
Target Entity: S. aureus 38
Unit Annotation: Log10
bacterial reduction: 3.0

====

Assay: Hydrogel formation, vial inversion test (critical gel concentration)
Type: physicochemical
Conditions: hydrogels of cationic peptides 10-14
Excerpt: The simplest method to determine whether a suitable hydrogel has formed is to use the vial inversion test. Through visual inspection, a material can be categorised as a solution, viscous solution, partial gel, or solid-like gel. […] The critical gel concentration (CGC) is defined as the minimum mass of a short peptide required to provide a self-supporting hydrogel per unit volume in the vial inversion test (measured as % w/v). […]
Result Type: pH

Structure: CN(C)CCCNC(=O)[C@H](Cc1ccccc1)NC(=O)c1ccccc1NC(=O)c1ccc2ccccc2c1
Endpoint Value: 5.5

Structure: NCCCNC(=O)[C@H](Cc1ccccc1)NC(=O)c1ccccc1NC(=O)c1ccc2ccccc2c1
Endpoint Value: 5.5

Structure: NCCNC(=O)[C@H](Cc1ccccc1)NC(=O)c1ccccc1NC(=O)c1ccc2ccccc2c1
Endpoint Value: 5.5

Structure: C[N+](C)(C)CCCNC(=O)[C@H](Cc1ccccc1)NC(=O)c1ccccc1NC(=O)c1ccc2ccccc2c1.[I-]
Endpoint Value: 6

Structure: N=C(N)NCCCNC(=O)[C@H](Cc1ccccc1)NC(=O)c1ccccc1NC(=O)c1ccc2ccccc2c1
Endpoint Value: 6

====

System: S. aureus 38
Assay: Antibacterial activity of cationic hydrogels, viable count method
Format: cell-based, Staphylococcus aureus
Details: hydrogel at 1% w/v in contact with S. aureus, compared to control
Measured bacterial reduction of individual entries

Compound: NCCCNC(=O)[C@H](Cc1ccccc1)NC(=O)c1ccccc1NC(=O)c1ccc2ccccc2c1 [Compound 11]
bacterial reduction [Log10]: 9.0
--
Compound: CN(C)CCCNC(=O)[C@H](Cc1ccccc1)NC(=O)c1ccc(Cl)cc1NC(=O)c1ccc2ccccc2c1 [Compound 16]
bacterial reduction [Log10]: 5.0
--
Compound: CN(C)CCCNC(=O)[C@H](Cc1ccccc1)NC(=O)c1ccc(F)cc1NC(=O)c1ccc2ccccc2c1 [Compound 15]
bacterial reduction [Log10]: 3.1

====

Assay: Frequency sweep test (FST), rheometer
Type: physicochemical
Conditions: hydrogels 15-19 at 1% w/v, FST fixed strain 0.1%
Procedure: The mechanical properties of anthranilamide-based cationic hydrogels were assessed using an Anton Paar MCR 302 rheometer with a 25 mm stainless parallel plate configuration. […] The mechanical properties of hydrogels 4 (formed via addition of NaCl or GdL) before and after blue light irradiation were also assessed using an Anton Paar MCR 302 rheometer with a 25 mm stainless parallel plate configuration. […]
Mark label 1 only for G″ (modulus loss) values smaller than 0.2 kPa; exact matches and larger values are label 0.

Structure: CN(C)CCCNC(=O)[C@H](Cc1ccccc1)NC(=O)c1ccccc1NC(=O)c1ccc2ccccc2c1
Label: label 0

Structure: CN(C)CCCNC(=O)[C@H](Cc1ccccc1)NC(=O)c1ccccc1NC(=O)c1ccc2ccccc2c1.Cl
Label: label 1

Structure: CN(C)CCCNC(=O)[C@H](Cc1ccccc1)NC(=O)c1ccc(Br)cc1NC(=O)c1ccc2ccccc2c1
Label: label 1

Structure: CN(C)CCCNC(=O)[C@H](Cc1ccccc1)NC(=O)c1ccc(Cl)cc1NC(=O)c1ccc2ccccc2c1
Label: label 1

Structure: CN(C)CCCNC(=O)[C@H](Cc1ccccc1)NC(=O)c1ccc(F)cc1NC(=O)c1ccc2ccccc2c1
Label: label 1

====

Experiment: Strain sweep test (SST), linear viscoelastic region
Assay type: physicochemical
Settings: hydrogels at 1% w/v, SST at 1 Hz, 0.1% to 100% strain
Measured LVER (linear viscoelastic region) of individual entries
Result Type: LVER (linear viscoelastic region)

Molecule: CN(C)CCCNC(=O)[C@H](Cc1ccccc1)NC(=O)c1ccccc1NC(=O)c1ccc2ccccc2c1 [Compound 12]
Result Type: LVER (linear viscoelastic region)
Endpoint Value: 0.98 ± 0.02%
--
Molecule: C[N+](C)(C)CCCNC(=O)[C@H](Cc1ccccc1)NC(=O)c1ccccc1NC(=O)c1ccc2ccccc2c1.[I-]
Result Type: LVER (linear viscoelastic region)
Endpoint Value: 1.10 ± 0.04%
--
Molecule: CN(C)CCCNC(=O)[C@H](Cc1ccccc1)NC(=O)c1ccccc1NC(=O)c1ccc2ccccc2c1 [Compound 18]
Result Type: LVER (linear viscoelastic region)
Endpoint Value: 0.98 ± 0.02%
--
Molecule: CN(C)CCCNC(=O)[C@H](Cc1ccccc1)NC(=O)c1ccccc1NC(=O)c1ccc2ccccc2c1.Cl
Result Type: LVER (linear viscoelastic region)
Endpoint Value: 1.00 ± 0.01%
--
Molecule: NCCCNC(=O)[C@H](Cc1ccccc1)NC(=O)c1ccccc1NC(=O)c1ccc2ccccc2c1
Result Type: LVER (linear viscoelastic region)
Endpoint Value: 0.98 ± 0.05%

====

Test: Hydrogel formation, vial inversion test (critical gel concentration)
Type: physicochemical
Settings: hydrogels of cationic peptides 15-19
Result Type: pH

Structure: CN(C)CCCNC(=O)[C@H](Cc1ccccc1)NC(=O)c1ccc(F)cc1NC(=O)c1ccc2ccccc2c1
Endpoint Value: 5.5
//
Structure: CN(C)CCCNC(=O)[C@H](Cc1ccccc1)NC(=O)c1ccc(Br)cc1NC(=O)c1ccc2ccccc2c1
Endpoint Value: 5.5
//
Structure: CN(C)CCCNC(=O)[C@H](Cc1ccccc1)NC(=O)c1ccc(Cl)cc1NC(=O)c1ccc2ccccc2c1
Endpoint Value: 5.5
//
Structure: CN(C)CCCNC(=O)[C@H](Cc1ccccc1)NC(=O)c1ccccc1NC(=O)c1ccc2ccccc2c1.Cl
Endpoint Value: 5
//
Structure: CN(C)CCCNC(=O)[C@H](Cc1ccccc1)NC(=O)c1ccccc1NC(=O)c1ccc2ccccc2c1
Endpoint Value: 4
